Attribution: patent US8642609B2

assay.system: ΔF508-CFTR (Homo sapiens, UniProt P13569, DEL508-508)
Construct: expressed in transfected cells
Sequence (P13569 with tags, fused parts or gaps DEL508-508): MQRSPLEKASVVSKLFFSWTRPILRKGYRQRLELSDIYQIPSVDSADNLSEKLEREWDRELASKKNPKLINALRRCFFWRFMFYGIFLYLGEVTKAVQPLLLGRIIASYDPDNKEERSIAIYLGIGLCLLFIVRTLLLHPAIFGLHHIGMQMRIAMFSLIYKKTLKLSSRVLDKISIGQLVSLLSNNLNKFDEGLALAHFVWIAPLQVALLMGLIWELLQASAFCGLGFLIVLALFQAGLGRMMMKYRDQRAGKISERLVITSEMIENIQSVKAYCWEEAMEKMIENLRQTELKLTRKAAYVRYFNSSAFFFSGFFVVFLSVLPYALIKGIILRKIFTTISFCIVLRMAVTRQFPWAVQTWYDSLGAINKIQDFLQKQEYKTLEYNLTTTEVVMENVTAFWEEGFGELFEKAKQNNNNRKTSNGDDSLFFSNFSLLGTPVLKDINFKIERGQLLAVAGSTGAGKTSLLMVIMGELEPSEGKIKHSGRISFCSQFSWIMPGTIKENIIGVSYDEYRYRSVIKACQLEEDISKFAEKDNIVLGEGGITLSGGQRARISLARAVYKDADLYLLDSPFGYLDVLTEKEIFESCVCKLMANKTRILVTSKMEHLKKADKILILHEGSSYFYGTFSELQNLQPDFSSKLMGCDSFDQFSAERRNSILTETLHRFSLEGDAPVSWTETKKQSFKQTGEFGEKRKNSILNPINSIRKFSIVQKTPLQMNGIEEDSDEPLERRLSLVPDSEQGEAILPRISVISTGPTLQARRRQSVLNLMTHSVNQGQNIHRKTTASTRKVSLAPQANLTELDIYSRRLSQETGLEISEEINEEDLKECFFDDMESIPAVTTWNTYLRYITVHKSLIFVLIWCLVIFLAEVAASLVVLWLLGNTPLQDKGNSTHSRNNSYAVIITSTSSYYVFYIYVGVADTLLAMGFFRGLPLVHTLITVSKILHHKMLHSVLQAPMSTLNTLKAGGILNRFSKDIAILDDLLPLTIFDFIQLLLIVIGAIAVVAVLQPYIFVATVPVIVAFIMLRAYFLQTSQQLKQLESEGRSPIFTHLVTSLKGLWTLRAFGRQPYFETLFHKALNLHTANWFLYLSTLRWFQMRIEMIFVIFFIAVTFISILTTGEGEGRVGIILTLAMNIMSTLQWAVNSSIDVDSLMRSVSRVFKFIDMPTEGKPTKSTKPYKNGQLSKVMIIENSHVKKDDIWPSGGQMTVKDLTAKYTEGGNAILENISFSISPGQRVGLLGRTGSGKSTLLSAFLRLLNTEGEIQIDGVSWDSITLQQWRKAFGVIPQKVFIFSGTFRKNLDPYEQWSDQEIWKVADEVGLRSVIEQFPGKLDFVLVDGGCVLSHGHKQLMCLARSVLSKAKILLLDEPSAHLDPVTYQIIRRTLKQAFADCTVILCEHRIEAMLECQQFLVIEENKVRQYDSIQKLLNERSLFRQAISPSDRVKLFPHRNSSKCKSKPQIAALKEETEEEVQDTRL
assay.remarks: Membrane potential optical assay (FRET/VIPR), identification of correction compounds
Assay type: cell-based
run.parameters: relative efficacy
Reported Emax values follow for various molecules
property.measured: Emax

INSERT INTO results (molecule, measured_result) VALUES
  ('COc1ccc(S(=O)(=O)N2CCN(C(C)c3ncc(C(=O)O)c(N4CCCCC4)n3)CC2)cc1 (stereo not shown) [compound 355]', '< 25%'),
  ('COc1ccc(S(=O)(=O)N2CCN(C(C)c3nc(N4CCCC4)c4ccccc4n3)CC2)cc1 (stereo not shown) [compound 333]', '25 to 100%'),
  ('CC(=O)Nc1ccc(S(=O)(=O)N2CCN(C(C)c3nc4cc(Cl)ccc4c(=O)n3C)CC2)cc1 (stereo not shown) [compound 111]', '25 to 100%'),
  ('CC(NCCNS(=O)(=O)c1ccc(Cl)cc1)c1nc2ccccc2c(=O)n1C (stereo not shown) [compound 168]', '< 25%'),
  ('COc1ccc(S(=O)(=O)N2CCN(C(C)c3nc(NC4CCCC4)c4ccccc4n3)CC2)cc1 (stereo not shown) [compound 303]', '> 100%'),
  ('Cc1ccc(S(=O)(=O)N2CCN(C(C)c3nc4ccccc4c(=O)n3C)CC2)cc1 (stereo not shown) [compound 11]', '25 to 100%'),
  ('CC(=O)c1ccc(S(=O)(=O)N2CCN(C(C)c3nc4ccccc4c(=O)n3C)CC2)cc1 (stereo not shown) [compound 239]', '< 25%'),
  ('C#Cc1ccc(S(=O)(=O)N2CCN(C(C)c3nc4ccccc4c(=O)n3C)CC2)cc1 (stereo not shown) [compound 354]', '25 to 100%'),
  ('COc1ccc(S(=O)(=O)N2CCN(C(C)c3nc(N4CCCCC4)c4ccccc4n3)CC2)cc1 (stereo not shown) [compound 302]', '> 100%'),
  ('COCCOc1nc(C(C)N2CCN(S(=O)(=O)c3ccc(OC)cc3)CC2)nc2ccccc12 (stereo not shown) [compound 295]', '25 to 100%'),
  ('Cc1c(S(=O)(=O)N2CCN(C(C)c3nc4ccccc4c(=O)n3C)CC2)sc2ccc(Cl)cc12 (stereo not shown) [compound 270]', '< 25%'),
  ('CC(NCCNS(=O)(=O)c1ccc(Br)cc1)c1nc2ccccc2c(=O)n1C (stereo not shown) [compound 169]', '25 to 100%'),
  ('CC(NCCN(C)S(=O)(=O)c1ccc(Cl)cc1)c1nc2ccccc2c(=O)n1C (stereo not shown) [compound 212]', '< 25%'),
  ('COc1ccc(S(=O)(=O)N2CCC(C(C)c3nc4ccccc4c(=O)[nH]3)CC2)cc1 (stereo not shown) [compound 405]', '25 to 100%'),
  ('COc1ccc(S(=O)(=O)N2CCN(C(C)c3nc(N4CCC(C)CC4)c4ccccc4n3)CC2)cc1 (stereo not shown) [compound 320]', '> 100%'),
  ('COc1ccc(S(=O)(=O)N2CCN(C(C)c3ncc(-c4ccccc4)c(N4CCCCC4)n3)CC2)cc1 (stereo not shown) [compound 376]', '25 to 100%');

====

Reported EC50 values follow for various molecules
assay.system: ΔF508-CFTR (Homo sapiens, UniProt P13569, DEL508-508)
assay.remarks: Membrane potential optical assay (FRET/VIPR), identification of correction compounds
property.measured: EC50

INSERT INTO results (molecule, measured_result) VALUES
  ('COc1ccc(S(=O)(=O)N2CCN(C(C)c3nc(OC4CCC(O)CC4)c4ccccc4n3)CC2)cc1 (centres unmarked) [compound 343]', '25 to 60 µM'),
  ('CCOC(=O)c1cnc(C(C)N2CCN(S(=O)(=O)c3ccc(OC)cc3)CC2)nc1N1CCCCC1 (centres unmarked) [compound 353]', '< 10 µM'),
  ('Cc1cccc(NC(=O)N2CCN(C(C)c3nc4ccc(Cl)cc4c(=O)n3C)CC2C)c1 (centres unmarked) [compound 1]', '25 to 60 µM'),
  ('COc1ccc(S(=O)(=O)N2CCN(C(C)c3nc(NC4CCCCC4)c4cc(F)ccc4n3)CC2)cc1 (centres unmarked) [compound 373]', '10 to 25 µM'),
  ('CC(NCCCN)c1nc2ccccc2c(=O)n1C (centres unmarked) [compound 185]', '25 to 60 µM'),
  ('COc1cc2nc(C(C)N3CCN(S(=O)(=O)c4ccc(Br)cc4)CC3)n(C)c(=O)c2cc1OC (centres unmarked) [compound 284]', '25 to 60 µM'),
  ('CC(c1nc2ccc(Cl)cc2c(=O)n1C)N1CCN(S(=O)(=O)c2ccccc2)CC1 (centres unmarked) [compound 71]', '10 to 25 µM'),
  ('COc1ccc(S(=O)(=O)N2CCN(C(C)c3nc4ccc(S(C)(=O)=O)cc4c(=O)n3C)CC2)cc1 (centres unmarked) [compound 140]', '10 to 25 µM'),
  ('CCCn1c(CN2CCN(S(=O)(=O)c3ccc(Cl)cc3)CC2)nc2ccccc2c1=O [compound 151]', '10 to 25 µM'),
  ('CCn1c(C(C)N2CCN(S(=O)(=O)c3cccc4ccccc34)CC2)nc2ccc(Cl)cc2c1=O (centres unmarked) [compound 35]', '< 10 µM'),
  ('COc1ccc(S(=O)(=O)N2CCN(C(C)c3ncc(C(N)=O)c(N4CCCCC4)n3)CC2)cc1 (centres unmarked) [compound 356]', '25 to 60 µM'),
  ('CC(c1nc2ccccc2c(=O)n1C)N1CCN(S(=O)(=O)c2ccc(-c3ccccc3)cc2)CC1 (centres unmarked) [compound 242]', '25 to 60 µM'),
  ('COc1ccc2nc(C(C)N3CCN(S(=O)(=O)c4ccc(C)cc4)CC3)n(C)c(=O)c2c1 (centres unmarked) [compound 134]', '10 to 25 µM'),
  ('CNc1nc(C(C)N2CCN(S(=O)(=O)c3ccc(Br)cc3)CC2)nc2ccccc12 (centres unmarked) [compound 219]', '25 to 60 µM'),
  ('COc1ccc(S(=O)(=O)N2CCN(C(C)c3nc(N4CCCCC4)c4cc(F)ccc4n3)CC2)cc1 (centres unmarked) [compound 371]', '< 10 µM'),
  ('CC(c1nc2ccccc2c(=O)n1C)N1CCN(S(=O)(=O)c2cccc3nsnc23)CC1 (centres unmarked) [compound 282]', '25 to 60 µM'),
  ('CCCn1c(C(C)N2CCN(S(=O)(=O)c3ccc(Br)cc3)CC2)nc2ccccc2c1=O (centres unmarked) [compound 27]', '< 10 µM'),
  ('CC(c1nc2ccccc2c(=O)n1C)N(C)CCNS(=O)(=O)c1ccc(Cl)cc1 (centres unmarked) [compound 238]', '25 to 60 µM'),
  ('CNc1nc(C(C)N2CCN(S(=O)(=O)c3ccc(Cl)cc3)CC2)nc2ccccc12 (centres unmarked) [compound 232]', '25 to 60 µM'),
  ('CC(c1nc2ccccc2c(=O)n1C)N1CCN(S(=O)(=O)c2ccccc2Cl)CC1 (centres unmarked) [compound 229]', '25 to 60 µM'),
  ('CC(c1nc2ccccc2c(=O)n1C)N1CCN(S(=O)(=O)c2ccc(Oc3ccccc3)cc2)CC1 (centres unmarked) [compound 255]', '25 to 60 µM'),
  ('CC(c1nc(OC2CCCC2)c2ccccc2n1)N1CCN(S(=O)(=O)c2ccc(Br)cc2)CC1 (centres unmarked) [compound 218]', '< 10 µM'),
  ('COc1ccc(S(=O)(=O)N2CCN(C(C)c3nc4ccccc4c(=O)n3CC(C)(C)C)CC2)cc1 (centres unmarked) [compound 332]', '25 to 60 µM'),
  ('CC(c1nc2ccc(Cl)cc2c(=O)n1C)N1CCN(C(=O)c2ccccc2)CC1 (centres unmarked) [compound 38]', '25 to 60 µM'),
  ('CC(NCCN(C)S(=O)(=O)c1ccc(Cl)cc1)c1nc2ccccc2c(=O)n1C (centres unmarked) [compound 212]', '25 to 60 µM'),
  ('COc1ccc(S(=O)(=O)N2CCN(C(C)c3nc4cc(OC)c(OC)cc4c(=O)n3C)CC2)cc1 (centres unmarked) [compound 285]', '25 to 60 µM'),
  ('CCNc1nc(C(C)N2CCN(S(=O)(=O)c3ccc(OC)cc3)CC2)nc2ccccc12 (centres unmarked) [compound 194]', '25 to 60 µM'),
  ('COc1ccc(S(=O)(=O)N2CCN(C(C)c3nc(OC(C)C)c4ccccc4n3)CC2)cc1 (centres unmarked) [compound 190]', '< 10 µM'),
  ('COc1ccc(S(=O)(=O)N2CCCN(C(C)c3nc4ccccc4c(=O)n3C)CC2)cc1 (centres unmarked) [compound 170]', '25 to 60 µM'),
  ('COc1cc(C(=O)N2CCN(C(C)c3nc4ccc(Cl)cc4c(=O)n3C)CC2)cc(OC)c1OC (centres unmarked) [compound 14]', '25 to 60 µM'),
  ('CC(c1nc2ccccc2c(=O)n1C)N1CCN(S(=O)(=O)c2ccc(C(C)(C)C)cc2)CC1 (centres unmarked) [compound 13]', '25 to 60 µM'),
  ('COc1ccc(S(=O)(=O)N2CCN(C(C)c3nc4ccc(F)cc4c(=O)[nH]3)CC2)cc1 (centres unmarked) [compound 377]', '25 to 60 µM');
